biological target: pooled human IgG (human IgG1, 2, 3 and 4)
observable: Enzyme Activity Endpoint Assay (purified): scIgG (ng/µL)
All answers are understood in ng/µL, so give the number only.

# protein, measurementUnits, reportedMeasurement
measured = [
    ("PRT-686 (protein) MQITSVWTKGVTPLTPEQFTYNNEDVIHAPYIANQGWYDITKTFNGKDNLLCGAATAGNMLHWWFDQNKTEIENYLKKHPEKQKIIFNNQELFDLRKAINTKDSQTNSALFNYFRDKAFPNLSARQLGVMPDLVLDMFINGYYLNVFKTQSTDVNRPYQTKDKRGGIFDHVFTRGDQSTLLTARHDLKNKTLNEISDIIKQELTEGKALALSHTYANVSISHVINLWGADFNAEGNLEAIYVTDSDANASIGMKKYFVGVNSHGKVAISAKKIEDENIGAQVLGLFTLSSGQDIWEQLSLEHHHHHH", "ng/µL", 252),
]

Could you now look at the following protein, please?
# input Determine from records and report Enzyme Activity Endpoint Assay (purified): scIgG for PRT-568 (protein) MANQEIRYSEATPSHITSVWTKGVTPPTQFIQNEDVLHAPYIANQGWYDITKTFNGKDDLLCGAATAGNMLHWWFDQNKTQIENYLKKHPEKQKINFNGEQMFDVKEAIDTKDSQTDSALFSYFKDKAFPYLSTKHLGVFPDHVIDMFINGYRLSLTNHGPTPVKRQTKDPRGGIFDAVFTRGDQSKLLTARHDFKEKTLNEISQLIKQELTEGKALGLSHTYANVRINHVINLWGADFNAEGNLEAIYVTDSDSNASIGMKKYYVGVNAAGHVAISAKEIEGDNIGAQVLGLFTLSTGQDIWQQTNLEHHHHHH
# output 0
